- TEST_PROTOCOL: Pharmacokinetic study in normal and arthritic model rats after oral administration of APR extract (UPLC-MS/MS of plasma)
- MEASUREMENT_SETUP: model vs normal rats, oral APR
MEASURED_METRIC: change of Cmax in model rats compared with normal rats

>>> print(df.to_string())
                                smiles_text  observed_result
0  O=C(/C=C/c1ccc(O)c(O)c1)O[C@H]1[C@H](O)C[C@](O)(C(=O)O)C[C@H]1O        increased
1  O=C(/C=C/c1ccc(O)c(O)c1)O[C@@H]1C[C@](O)(C(=O)O)C[C@@H](O)[C@H]1O        increased

----------
- TEST_PROTOCOL: Pharmacokinetic study in normal and arthritic model rats after oral administration of APR extract (UPLC-MS/MS of plasma)
- MEASUREMENT_SETUP: Sprague-Dawley, rat, plasma, po, 4.1 mL/kg, C max, arthritic model rats (complete Freund's adjuvant), oral APR extract 4.1 mL/kg, mean ± SD, n = 6
MEASURED_METRIC: Cmax (ng/mL)

In [3]: df
Out[3]:
                                smiles_text  observed_result
0  C/C=C(/C)C(=O)OC(C)(C)[C@@H]1Cc2c(ccc3ccc(=O)oc23)O1             1500
1  O=C(/C=C/c1ccc(O)c(O)c1)O[C@@H]1C[C@](O)(C(=O)O)C[C@@H](O)[C@H]1O             2760
2                 COc1c2ccoc2cc2oc(=O)ccc12              518
3  O=C(/C=C/c1ccc(O)c(O)c1)O[C@H]1[C@H](O)C[C@](O)(C(=O)O)C[C@H]1O              189
4          CC(C)=CCOc1c2ccoc2cc2oc(=O)ccc12              232
5    CC(C)(O)[C@@H]1Cc2c(ccc3ccc(=O)oc23)O1             2220
6                     O=c1ccc2cc3ccoc3cc2o1              327
7              COc1ccc2ccc(=O)oc2c1CC=C(C)C             4560

----------
- TEST_PROTOCOL: Pharmacokinetic study in normal and arthritic model rats after oral administration of APR extract (UPLC-MS/MS of plasma)
- MEASUREMENT_SETUP: Sprague-Dawley, rat, plasma, po, 4.1 mL/kg, C max, normal rats, oral APR extract 4.1 mL/kg, mean ± SD, n = 6
- Procedure: One hundred grams of the APR sample was extracted by reflux with 800 mL 50% ethanol/water (v/v) for 3 times (2 hours each time), then combined with the filtrate and concentrated under vacuum with heat, and the concentration of APR extract was 0.37 g/mL. All the sample solutions were stored at 4°C before analysis. Twelve SD rats were randomly divided into two groups (n = 6) and named as the model group and the normal group, respectively. […]
MEASURED_METRIC: log10 of Cmax (log10 of the value in ng/mL)

MOLECULE	log10 of Cmax
CC(C)(O)[C@@H]1Cc2c(ccc3ccc(=O)oc23)O1 [Columbianetin, columbianetin]	3.49
O=C(C=Cc1ccc(O)c(O)c1)OC1CC(O)(C(=O)O)CC(O)C1O (stereo not shown) [Neochlorogenic acid]	2.62
CC(C)=CCOc1c2ccoc2cc2oc(=O)ccc12 [Isoimperatorin, isoimperatorin]	2.35
COc1c2ccoc2cc2oc(=O)ccc12 [Bergapten, bergapten]	2.58
C/C=C(/C)C(=O)OC(C)(C)[C@@H]1Cc2c(ccc3ccc(=O)oc23)O1 [Columbianadin, columbianadin]	3.23
O=C(C=Cc1ccc(O)c(O)c1)OC1CC(O)(C(=O)O)CC(OC(=O)C=Cc2ccc(O)c(O)c2)C1O (stereo not shown) [3,5-diCQA, isochlorogenic acid A]	2.47
O=C(/C=C/c1ccc(O)c(O)c1)O[C@H]1[C@H](O)C[C@](O)(C(=O)O)C[C@H]1O [Cryptochlorogenic acid, cryptochlorogenic acid]	2.16
O=C(/C=C/c1ccc(O)c(O)c1)O[C@@H]1[C@H](O)C[C@@](O)(C(=O)O)C[C@H]1OC(=O)/C=C/c1ccc(O)c(O)c1 [3,4-diCQA, isochlorogenic acid B]	1.93
COc1ccc2ccc(=O)oc2c1CC=C(C)C [Osthol, osthol]	3.56
O=c1ccc2cc3ccoc3cc2o1 [Psoralen, psoralen]	2.32

----------
- TEST_PROTOCOL: Pharmacokinetic study in normal and arthritic model rats after oral administration of APR extract (UPLC-MS/MS of plasma)
- MEASUREMENT_SETUP: Sprague-Dawley, rat, in vivo, po, 4.1 mL/kg, t 1/2, arthritic model rats (complete Freund's adjuvant), oral APR extract 4.1 mL/kg, plasma, mean ± SD, n = 6
MEASURED_METRIC: half-life (h)

                                   molecule  measured_metric  observed_result
0  COc1c2occc2cc2ccc(=O)oc12 [Xanthotoxin, xanthotoxin]        half-life             14.2

----------
- TEST_PROTOCOL: Pharmacokinetic study in normal and arthritic model rats after oral administration of APR extract (UPLC-MS/MS of plasma)
- MEASUREMENT_SETUP: Sprague-Dawley, rat, plasma, po, 4.1 mL/kg, MRT0-t, normal rats, oral APR extract 4.1 mL/kg, mean ± SD, n = 6
MEASURED_METRIC: MRT last (h)

In [3]: df
Out[3]:
                                   molecule  endpoint_unit  observed_result
0  COc1ccc2ccc(=O)oc2c1CC=C(C)C [Osthol, osthol]              h             6.53
1  COc1c2ccoc2cc2oc(=O)ccc12 [Bergapten, bergapten]              h              9.4
2  O=C(/C=C/c1ccc(O)c(O)c1)O[C@@H]1C[C@](O)(C(=O)O)C[C@@H](O)[C@H]1O [Chlorogenic acid, chlorogenic acid]              h             5.95
3  CC(C)(O)[C@@H]1Cc2c(ccc3ccc(=O)oc23)O1 [Columbianetin, columbianetin]              h             13.3

----------
- TEST_PROTOCOL: Pharmacokinetic study in normal and arthritic model rats after oral administration of APR extract (UPLC-MS/MS of plasma)
- MEASUREMENT_SETUP: Sprague-Dawley, rat, in vivo, po, 4.1 mL/kg, MRT0-t, arthritic model rats (complete Freund's adjuvant), oral APR extract 4.1 mL/kg, plasma, mean ± SD, n = 6
MEASURED_METRIC: MRT last (h)

>>> df
                 smiles_text  endpoint_unit  observed_result
0  COc1c2occc2cc2ccc(=O)oc12              h             10.3

----------
- TEST_PROTOCOL: Pharmacokinetic study in normal and arthritic model rats after oral administration of APR extract (UPLC-MS/MS of plasma)
- MEASUREMENT_SETUP: Sprague-Dawley, rat, plasma, po, 4.1 mL/kg, MRT0-t, arthritic model rats (complete Freund's adjuvant), oral APR extract 4.1 mL/kg, mean ± SD, n = 6
Listed here: items and their measured MRT last.
MEASURED_METRIC: MRT last (h)

                                   compound  measured_metric  observed_result
0  O=C(C=Cc1ccc(O)c(O)c1)OC1CC(O)(C(=O)O)CC(OC(=O)C=Cc2ccc(O)c(O)c2)C1O (stereo not shown)         MRT last             18.8
1  O=C(/C=C/c1ccc(O)c(O)c1)O[C@@H]1C[C@](O)(C(=O)O)C[C@@H](O)[C@H]1O         MRT last             8.68
2    CC(C)(O)[C@@H]1Cc2c(ccc3ccc(=O)oc23)O1         MRT last             12.1
3  O=C(C=Cc1ccc(O)c(O)c1)OC1CC(O)(C(=O)O)CC(O)C1O (stereo not shown)         MRT last             15.6
4          CC(C)=CCOc1c2ccoc2cc2oc(=O)ccc12         MRT last             15.7
5  C/C=C(/C)C(=O)OC(C)(C)[C@@H]1Cc2c(ccc3ccc(=O)oc23)O1         MRT last             11.5
6  O=C(/C=C/c1ccc(O)c(O)c1)O[C@@H]1[C@H](O)C[C@@](O)(C(=O)O)C[C@H]1OC(=O)/C=C/c1ccc(O)c(O)c1         MRT last             19.8

----------
Each item that follows carries a reported MRT last.
- TEST_PROTOCOL: Pharmacokinetic study in normal and arthritic model rats after oral administration of APR extract (UPLC-MS/MS of plasma)
- MEASUREMENT_SETUP: Sprague-Dawley, rat, plasma, po, 4.1 mL/kg, MRT0-t, normal rats, oral APR extract 4.1 mL/kg, mean ± SD, n = 6
MEASURED_METRIC: MRT last (h)

MOLECULE	ENDPOINT_UNIT	OBSERVED_RESULT
CC(C)=CCOc1c2ccoc2cc2oc(=O)ccc12 [Isoimperatorin, isoimperatorin]	h	15.1
O=C(C=Cc1ccc(O)c(O)c1)OC1CC(O)(C(=O)O)CC(OC(=O)C=Cc2ccc(O)c(O)c2)C1O (stereo not shown) [3,5-diCQA, isochlorogenic acid A]	h	21.1
O=C(C=Cc1ccc(O)c(O)c1)OC1CC(O)(C(=O)O)CC(O)C1O (stereo not shown) [Neochlorogenic acid]	h	15.6
O=c1ccc2cc3ccoc3cc2o1 [Psoralen, psoralen]	h	14.3
O=C(/C=C/c1ccc(O)c(O)c1)O[C@H]1[C@H](O)C[C@](O)(C(=O)O)C[C@H]1O [Cryptochlorogenic acid, cryptochlorogenic acid]	h	18.3
C/C=C(/C)C(=O)OC(C)(C)[C@@H]1Cc2c(ccc3ccc(=O)oc23)O1 [Columbianadin, columbianadin]	h	12.3
O=C(/C=C/c1ccc(O)c(O)c1)O[C@@H]1[C@H](O)C[C@@](O)(C(=O)O)C[C@H]1OC(=O)/C=C/c1ccc(O)c(O)c1 [3,4-diCQA, isochlorogenic acid B]	h	21.2

Data provenance is paper PMC9398717.
